- experimental system: EphB3 (Homo sapiens)
- Sequence (P54753 34-998): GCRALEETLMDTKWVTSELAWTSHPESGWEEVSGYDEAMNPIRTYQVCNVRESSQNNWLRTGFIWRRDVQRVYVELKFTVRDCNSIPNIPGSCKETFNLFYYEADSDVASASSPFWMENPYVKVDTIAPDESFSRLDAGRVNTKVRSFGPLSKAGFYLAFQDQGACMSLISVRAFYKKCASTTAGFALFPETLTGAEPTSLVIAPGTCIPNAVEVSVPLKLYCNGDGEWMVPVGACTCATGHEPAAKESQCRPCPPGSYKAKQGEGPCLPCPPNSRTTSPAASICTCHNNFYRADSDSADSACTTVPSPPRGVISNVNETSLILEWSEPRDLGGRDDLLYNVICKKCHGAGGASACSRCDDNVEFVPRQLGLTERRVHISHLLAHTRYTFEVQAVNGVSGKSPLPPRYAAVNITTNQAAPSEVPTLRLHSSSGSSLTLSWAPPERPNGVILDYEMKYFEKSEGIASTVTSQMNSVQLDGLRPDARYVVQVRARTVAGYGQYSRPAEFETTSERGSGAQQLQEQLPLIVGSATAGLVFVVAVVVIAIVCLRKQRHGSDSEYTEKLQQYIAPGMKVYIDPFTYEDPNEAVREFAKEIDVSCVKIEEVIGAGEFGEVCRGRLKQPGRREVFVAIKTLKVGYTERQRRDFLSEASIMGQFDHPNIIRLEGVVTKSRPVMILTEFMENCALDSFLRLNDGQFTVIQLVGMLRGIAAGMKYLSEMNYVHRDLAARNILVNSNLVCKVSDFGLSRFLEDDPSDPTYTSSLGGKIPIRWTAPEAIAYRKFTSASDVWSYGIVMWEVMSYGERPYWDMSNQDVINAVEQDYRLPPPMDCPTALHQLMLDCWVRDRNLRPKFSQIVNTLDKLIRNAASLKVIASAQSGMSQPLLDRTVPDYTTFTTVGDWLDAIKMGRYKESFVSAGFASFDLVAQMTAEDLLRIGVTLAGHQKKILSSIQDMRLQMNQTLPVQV
- protocol summary: EphB3 radiometric kinase activity assay (33P ATP filter binding)
- Type: biochemical
- condition parameters: Table 2, Example 12; read-out: EphB3 (nM) IC50
Record form. Attribute: IC50. Fill in for each entry.

Query string: Name the recorded IC50 of the molecule listed here: Cc1ccccc1-c1ccc2ncc(C(=O)Nc3ccccc3Cl)n2c1 [compound 106]
Result string: 182 nM

Query string: # return recorded IC50 for entry COc1ccccc1-c1ccc2ncc(C(=O)Nc3ccccc3Cl)n2c1 [compound 101]
Result string: 90 nM

Query string: Read the entry O=C(Nc1ccccc1Cl)c1cnc2ccc(-c3ccccc3O)cn12 [compound 116] and write its reported IC50.
Result string: 60 nM

The reported numbers originate from patent US20240189289A1.
